FYI, the data here is from paper PMC4072508.

Molecular target: Bcl-xL, Q07817
Sequence (Q07817 1-209): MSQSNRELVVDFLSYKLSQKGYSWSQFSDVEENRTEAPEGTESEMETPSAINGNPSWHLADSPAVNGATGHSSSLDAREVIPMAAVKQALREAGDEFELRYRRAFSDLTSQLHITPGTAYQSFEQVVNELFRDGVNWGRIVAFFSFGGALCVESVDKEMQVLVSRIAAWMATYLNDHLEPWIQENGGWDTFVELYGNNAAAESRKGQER
Experiment: peptide SPOT array, c-Myc-tagged receptor at 1 uM or 100 nM, anti-c-Myc-Cy3
This listing pairs binders with measured SPOT signal as a fraction of Bim BH3's signal on the same receptor and array.
# answer = number (no unit)

binder="PFDCRDYAVVLRKYLDKIYSISMKHP [FOLH1]" number=0.44
binder="RIEMWISILELNELLEYAAVELHQAK [KIF13A]" number=0.02
binder="KTALEKYHDGIEKAAEDSYAKIDEKT [NUF2]" number=0.02
binder="ATKRETAATFLKKVLKEFGFQNNGFS [NPLOC4]" number=0.48
binder="SQGKHGFTMAMNAFGDMTNEEFRQMM [CTSL2]" number=0.08

Problem: Fill in reported SPOT signal as a fraction of Bim BH3's signal on the same receptor and array for this entry: AIKSQRMVQNLLSLARKICERVHRSP [ZBED4]
Solution: 0.26

Problem: Please give the documented SPOT signal as a fraction of Bim BH3's signal on the same receptor and array of GTAVAYRGAHDRGRGRAVYNTFRAAP [XXXX]
Solution: 2.76
